target: human EGFR WT (NIH/3T3 cells, EGF-induced) (Homo sapiens, UniProt P00533); assay: EGFR target modulation in engineered NIH/3T3 cell lines (phospho-EGFR Y1068 AlphaLISA), EGFR WT; type: cell-based; conditions: engineered NIH/3T3 cells, read-out: NIH3T3 IC50 (μM) EGFR (WT)
Sequence (P00533 25-1210): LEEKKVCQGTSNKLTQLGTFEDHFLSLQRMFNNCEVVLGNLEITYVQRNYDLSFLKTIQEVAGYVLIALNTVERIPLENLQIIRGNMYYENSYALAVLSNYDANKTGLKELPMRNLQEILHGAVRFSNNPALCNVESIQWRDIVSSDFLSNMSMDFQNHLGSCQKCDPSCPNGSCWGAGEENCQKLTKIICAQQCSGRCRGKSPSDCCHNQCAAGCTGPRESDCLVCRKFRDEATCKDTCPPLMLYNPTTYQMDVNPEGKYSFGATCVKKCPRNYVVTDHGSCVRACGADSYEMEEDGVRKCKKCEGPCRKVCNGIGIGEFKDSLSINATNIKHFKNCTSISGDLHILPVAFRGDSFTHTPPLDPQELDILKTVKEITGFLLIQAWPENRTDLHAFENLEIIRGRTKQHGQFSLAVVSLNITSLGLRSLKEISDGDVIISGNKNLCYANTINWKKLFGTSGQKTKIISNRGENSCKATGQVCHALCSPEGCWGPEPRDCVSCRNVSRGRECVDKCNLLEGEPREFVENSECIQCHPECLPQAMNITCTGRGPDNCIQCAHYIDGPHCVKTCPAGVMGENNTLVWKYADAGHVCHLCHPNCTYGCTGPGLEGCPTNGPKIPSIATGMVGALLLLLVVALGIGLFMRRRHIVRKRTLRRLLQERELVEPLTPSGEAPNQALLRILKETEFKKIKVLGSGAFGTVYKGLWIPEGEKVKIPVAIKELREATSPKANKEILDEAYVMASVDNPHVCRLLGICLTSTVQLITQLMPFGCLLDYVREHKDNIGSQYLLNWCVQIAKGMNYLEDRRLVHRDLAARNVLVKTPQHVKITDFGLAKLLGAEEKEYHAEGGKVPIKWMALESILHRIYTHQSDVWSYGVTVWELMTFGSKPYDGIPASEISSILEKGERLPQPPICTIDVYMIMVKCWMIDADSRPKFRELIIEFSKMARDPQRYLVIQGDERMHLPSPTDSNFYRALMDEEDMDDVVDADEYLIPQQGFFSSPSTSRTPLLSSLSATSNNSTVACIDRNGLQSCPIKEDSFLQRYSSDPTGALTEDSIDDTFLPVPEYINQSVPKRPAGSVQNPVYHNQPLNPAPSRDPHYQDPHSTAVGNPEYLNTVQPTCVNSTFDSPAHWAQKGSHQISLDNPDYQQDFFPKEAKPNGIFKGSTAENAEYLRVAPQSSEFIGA
Readout kind: IC50 (µM)

// solved cases for IC50 follow
{"columns": ["Compound", "Readout kind", "Endpoint unit", "Quantitative result"],
 "data": [
  ["Cc1ncc(C(=O)Nc2nc3cccc(C)c3n2C2CCCCN(C(=O)/C=C/CN(C)C)C2)s1 (stereo not drawn) [Example 17-64]", "IC50", "µM", 0.021],
  ["C=C(CN1CCCC1)C(=O)N1CCCC[C@@H](n2c(NC(=O)c3ccnnc3)nc3cccc(C)c32)C1", "IC50", "µM", 1.01],
  ["Cc1cccc2nc(NC(=O)c3ccnc(F)c3)n(C3CCCCN(C(=O)/C=C/CN(C)C)C3)c12 (stereo not drawn)", "IC50", "µM", 0.026],
  ["Cc1cccc2nc(NC(=O)c3ccnnc3)n([C@@H]3CCCCN(C(=O)C#CCN(C)C)C3)c12", "IC50", "µM", 0.013],
  ["COc1cncc(C(=O)Nc2nc3cccc(C)c3n2[C@@H]2CCCCN(C(=O)/C=C/CN(C)C)C2)c1", "IC50", "µM", 0.062],
  ["C=CC(=O)N1CCCC[C@@H](n2c(NC(=O)c3cc(C)nc(C)c3)nc3cc(CN4CCCC4)cc(C)c32)C1", "IC50", "µM", 0.081]
]}

a = Cc1cccc2nc(NC(=O)c3cccc(S(C)(=O)=O)c3)n(C3CCCCN(C(=O)/C=C/CN(C)C)C3)c12 (stereo not drawn)
b = C=CC(=O)N1CCCC[C@@H](n2c(NC(=O)c3ccnnc3)nc3cccc(OC(C)C)c32)C1
Q. Would you kindly point out which of a and b has the smaller IC50 figure? Reply with the label of the item you choose.
A. a
(a: 0.103 µM, b: 0.45 µM)

====

biological target: EGFR(L858R/T790M) (Homo sapiens, UniProt P00533, L858R/T790M); construct: purchased from Carna (GST-a.a. 669-1210); assay: EGFR biochemical assay (HTRF), IC50 determinations; conditions: EGFR (L858R/T790M) with 90 min pre-incubation; read-out: IC50 (μM) Column B
Sequence (P00533 669-1210 T790M/L858R): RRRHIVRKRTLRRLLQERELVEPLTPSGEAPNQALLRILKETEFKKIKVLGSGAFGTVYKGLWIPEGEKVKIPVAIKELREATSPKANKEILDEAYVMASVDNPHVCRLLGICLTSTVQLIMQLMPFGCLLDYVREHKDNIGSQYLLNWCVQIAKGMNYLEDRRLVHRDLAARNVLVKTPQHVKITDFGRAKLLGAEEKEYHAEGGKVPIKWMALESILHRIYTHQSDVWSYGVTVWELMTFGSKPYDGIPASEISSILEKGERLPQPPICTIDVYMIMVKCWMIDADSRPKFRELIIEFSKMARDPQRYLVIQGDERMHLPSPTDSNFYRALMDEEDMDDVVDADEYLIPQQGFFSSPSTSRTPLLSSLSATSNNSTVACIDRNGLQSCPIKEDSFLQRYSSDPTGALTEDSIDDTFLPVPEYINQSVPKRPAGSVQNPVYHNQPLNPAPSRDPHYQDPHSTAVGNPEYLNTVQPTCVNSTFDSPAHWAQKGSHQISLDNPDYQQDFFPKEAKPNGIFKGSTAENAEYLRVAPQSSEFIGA
Readout kind: IC50 (µM)

Example results:
{"columns": ["Molecule", "Endpoint unit", "IC50"],
 "data": [
  ["Cc1cc(C(=O)Nc2nc3cccc(C(F)(F)F)c3n2[C@@H]2CCCCN(C(=O)/C=C/CN(C)C)C2)cc(C)n1 [Example 17-188]", "µM", 0.003],
  ["CC1=C(C(=O)N2CCCC[C@@H](n3c(NC(=O)c4ccnnc4)nc4cccc(C)c43)C2)S(=O)(=O)CCO1 [Example 17-88]", "µM", 0.04],
  ["Cc1cccc2nc(NC(=O)c3ccco3)n(C3CCCCN(C(=O)/C=C/CN(C)C)C3)c12 (centres unmarked) [Example 17-56]", "µM", 0.002]
]}

1 = C=CC(=O)N1CCN(C(=O)OC(C)(C)C)CC(n2c(NC(=O)c3ccnc(C)c3)nc3cccc(Cl)c32)C1 (centres unmarked) [Example 12]
2 = C=CC(=O)N1CCCCC(n2c(NC(=O)c3ccccc3)nc3cccc(C(=O)NCCC(=O)OC)c32)C1 (centres unmarked) [Example 17-134]
3 = Cc1cc(C(=O)Nc2nc3cccc(C)c3n2[C@@H]2CCCN(C(=O)/C=C/CN(C)C)C2)ccn1 [Example 17-4]
4 = C=CC(=O)N1CCCCC(n2c(NC(=O)c3ccccc3)nc3cccc(C(=O)NCCC(=O)O)c32)C1 (centres unmarked) [Example 17-136]
Q. Order these by IC50, descending, and give the full ranking. # format: label list in the order the request specifies
A. 4, 1, 2, 3

====

target: H1975 (EGFR L858/T790M) (Homo sapiens, UniProt P00533, L858R/T790M); test: EGFR target modulation in H1975 cell line (phospho-EGFR Y1173 ELISA)
pIC50: −log10 of the molar value.
Readout kind: pIC50

Here's what some known entries look like.
{"columns": ["Molecule", "Quantitative result"],
 "data": [
  ["Cc1nccc(C(=O)Nc2nc3cccc(C)c3n2C2CCCCN(C(=O)/C=C/CN(C)C)C2)n1 (stereo not shown)", 7.11],
  ["C/C=C/C(=O)N1CCCC[C@@H](n2c(NC(=O)c3ccnc(C)c3)nc3ccc(OCCN4CCCC4)c(Cl)c32)C1", 7.39]
]}

A = Cc1cccc2nc(NC(=O)c3ccc(F)c(F)c3)n(C3CCCCN(C(=O)/C=C/CN(C)C)C3)c12 (stereo not shown)
B = COc1cc(C(=O)Nc2nc3cccc(C)c3n2[C@@H]2CCCCN(C(=O)/C=C/CN(C)C)C2)ccn1
Q. Kindly identify the item with the lower pIC50 figure among these two: A and B Pick one; state its label.
A. A

====

target: human EGFR WT (NIH/3T3 cells, EGF-induced) (Homo sapiens); test: EGFR target modulation in engineered NIH/3T3 cell lines (phospho-EGFR Y1068 AlphaLISA), EGFR WT; assay type: cell-based; settings: engineered NIH/3T3 cells, read-out: NIH3T3 IC50 (μM) EGFR (WT)
Readout kind: IC50 (µM)

Past entries and their recorded results:
{"columns": ["Molecule", "Readout kind", "Quantitative result"],
 "data": [
  ["C=CC(=O)N1CCC[C@@H](n2c(NC(=O)c3cccc(C(F)(F)F)c3)nc3cc(CN(C)C(C)=O)ccc32)C1", "IC50", 5],
  ["Cc1cccc2nc(NC(=O)c3cccnn3)n(C3CCCCN(C(=O)/C=C/CN(C)C)C3)c12 (stereo not shown)", "IC50", 5.2]
]}

a = Cc1ncccc1C(=O)Nc1nc2cccc(C)c2n1C1CCCCN(C(=O)/C=C/CN(C)C)C1 (stereo not shown)
b = C=CC(=O)N1CCCCC(n2c(NC(=O)c3cccc(C(F)(F)F)c3)nc3cccc(C)c32)C1 (stereo not shown)
c = C=CC(=O)N1CCCC[C@@H](n2c(NC(=O)c3ccccc3)nc3cccc(CN(C)C)c32)C1
d = CC1=C(C(=O)N2CCCC[C@@H](n3c(NC(=O)c4ccnnc4)nc4cccc(C)c43)C2)S(=O)(=O)CCO1
Q. Rank ascending by IC50. Return the labels ranked in the requested order, please.
A. c, b, a, d

====

target: human EGFR L858R/T790M (NIH/3T3 cells) (Homo sapiens, UniProt P00533, L858R/T790M); experiment: EGFR target modulation in engineered NIH/3T3 cell lines (phospho-EGFR Y1068 AlphaLISA), EGFR L858R/T790M; type: cell-based; conditions: engineered NIH/3T3 cells, read-out: NIH3T3 IC50 (μM) EGFR (L858R/T790M)
Sequence (P00533 25-1210 T790M/L858R): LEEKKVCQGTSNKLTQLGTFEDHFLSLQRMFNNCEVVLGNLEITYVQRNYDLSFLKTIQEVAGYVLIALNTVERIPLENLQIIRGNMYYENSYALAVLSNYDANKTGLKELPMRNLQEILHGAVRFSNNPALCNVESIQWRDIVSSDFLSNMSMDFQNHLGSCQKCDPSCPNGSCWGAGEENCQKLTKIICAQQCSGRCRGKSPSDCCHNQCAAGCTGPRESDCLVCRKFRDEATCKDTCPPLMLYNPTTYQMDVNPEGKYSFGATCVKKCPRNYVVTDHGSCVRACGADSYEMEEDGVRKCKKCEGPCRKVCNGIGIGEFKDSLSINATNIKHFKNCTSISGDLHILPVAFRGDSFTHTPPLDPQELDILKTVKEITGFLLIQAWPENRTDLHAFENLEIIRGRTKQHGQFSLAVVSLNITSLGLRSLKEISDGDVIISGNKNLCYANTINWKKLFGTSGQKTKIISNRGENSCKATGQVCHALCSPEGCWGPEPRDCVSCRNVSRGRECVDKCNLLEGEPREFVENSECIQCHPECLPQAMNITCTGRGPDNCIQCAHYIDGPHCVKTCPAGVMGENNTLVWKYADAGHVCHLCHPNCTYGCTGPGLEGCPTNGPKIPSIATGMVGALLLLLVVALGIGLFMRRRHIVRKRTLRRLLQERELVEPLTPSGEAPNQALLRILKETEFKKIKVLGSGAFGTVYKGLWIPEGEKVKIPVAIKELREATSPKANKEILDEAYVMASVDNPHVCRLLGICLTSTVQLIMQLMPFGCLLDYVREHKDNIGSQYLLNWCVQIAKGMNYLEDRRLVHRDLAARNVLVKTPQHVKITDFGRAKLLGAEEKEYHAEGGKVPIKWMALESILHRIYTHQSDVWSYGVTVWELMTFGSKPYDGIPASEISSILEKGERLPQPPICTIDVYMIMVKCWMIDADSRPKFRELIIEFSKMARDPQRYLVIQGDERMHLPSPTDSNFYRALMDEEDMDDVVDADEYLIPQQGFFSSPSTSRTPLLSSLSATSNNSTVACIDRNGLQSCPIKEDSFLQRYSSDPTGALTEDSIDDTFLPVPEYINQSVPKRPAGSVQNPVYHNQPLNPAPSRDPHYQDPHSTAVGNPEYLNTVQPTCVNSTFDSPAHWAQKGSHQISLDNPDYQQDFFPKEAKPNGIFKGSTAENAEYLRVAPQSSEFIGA
Readout kind: IC50 (µM)

Look over these answered cases.
{"columns": ["Molecule", "Quantitative result"],
 "data": [
  ["Cc1cccc2nc(NC(=O)c3ccn(C)c(=O)c3)n(C3CCCCN(C(=O)/C=C/CN(C)C)C3)c12 (stereo not shown) [Example 17-49]", 0.027],
  ["Cc1cccc2nc(NC(=O)c3ccc(Cl)nc3)n([C@@H]3CCCCN(C(=O)/C=C/CN(C)C)C3)c12 [Example 17-77]", 0.001],
  ["C=CC(=O)N1CCCC(n2c(NC(=O)c3cccc(C(F)(F)F)c3)nc3c2CN(S(C)(=O)=O)CC3)C1 (stereo not shown) [Example 17-171]", 0.16]
]}

a = Cc1cccc2nc(NC(=O)c3cccc(F)c3)n(C3CCCCN(C(=O)/C=C/CN(C)C)C3)c12 (stereo not shown) [Example 17-21]
b = C=C(CN(CC)CC)C(=O)N1CCCC[C@@H](n2c(NC(=O)c3ccnnc3)nc3cccc(C)c32)C1 [Example 17-92]
Q. // compare measured IC50 between a and b ; output the lower one Give the chosen item's label as your response.
A. a
(a: 0.004 µM, b: 0.057 µM)

====

biological target: HaCaT (EGFR WT) (Homo sapiens, UniProt P00533); assay: EGFR target modulation in HaCaT (EGFR-WT) cell line (phospho-EGFR Y1173 ELISA); conditions: value in parentheses
Readout kind: IC50 (nM)

{"columns": ["Molecule", "Endpoint unit", "IC50"],
 "data": [
  ["Cc1cc(C(=O)Nc2nc3cccc(Cl)c3n2[C@@H]2CCCCN(C(=O)/C=C/CNC(C)(C)C)C2)ccn1 [Example 17-191]", "nM", 59]
]}

P = C=CC(=O)N1CCCC[C@@H](n2c(NC(=O)c3cc(C)nc(C)c3)nc3ccc(OCCN4CCCC4)c(Cl)c32)C1 [Example 15]
Q = C=CC(=O)N1CCCC[C@@H](n2c(NC(=O)c3cc(C)nc(C)c3)nc3cc(CN4CC[C@H](OC)C4)ccc32)C1 [Example 17-175]
R = C=CC(=O)N1CCCC[C@@H](n2c(NC(=O)c3ccnc(C)c3)nc3cc(CN4CC[C@@H](F)C4)cc(C)c32)C1 [Example 17-148]
S = CNC/C=C/C(=O)N1CCCC[C@@H](n2c(NC(=O)c3cc(C)nc(C)c3)nc3cccc(Cl)c32)C1 [Example 17-186]
Q. // smallest IC50 at index 0, largest at the end As an answer, provide the labels arranged in the order called for.
A. R, P, S, Q
